The measured values listed here are drawn from patent US20230158005A1.

Assay Explanation: in vitro
Condition: human, % Dif (absorbance as percent relative to the vehicle control, relative viability)
Reported Metric: viability at 0.5 µM (%)
// return numeric value only (unit: %, not printed)

Q. Form field: reported viability at 0.5 µM of CC1=C(COCCC(C)(C)C)C(=O)N(Nc2ccc(C(F)(F)F)c(Cl)n2)C1=O [felezonexor]
A. 71.6

* * *

Assay Explanation: in vitro
Condition: human, % Dif (absorbance as percent relative to the vehicle control, relative viability)
Reported Metric: viability at 0.05 µM (%)
Numeric answer only, unit % assumed.

Q. Please report the recorded viability at 0.05 µM for CC1=C(COCCC(C)(C)C)C(=O)N(Nc2ccc(C(F)(F)F)c(Cl)n2)C1=O [felezonexor] .
A. 101

* * *

Assay Explanation: in vitro
Condition: human, % Dif (absorbance as percent relative to the vehicle control, relative viability)
Reported Metric: viability at 0.25 µM (%)
Reply with just the number (in %).

Q. Given the compound CC1=C(COCCC(C)(C)C)C(=O)N(Nc2ccc(C(F)(F)F)c(Cl)n2)C1=O [felezonexor] , what is its reported viability at 0.25 µM?
A. 66.2
